Reference source: patent US20110039721A1

Test system: mRNA expressed from the genes (A) to (D) in rat liver
TEST METHOD NOTES: Behavior of genes (mRNA expression level, oligo-DNA microarray) in rat liver after 28-day oral administration
Format: in vivo
SETUP CONDITIONS: gene group (C); Unigene No. Rn.185941; mRNA vs vehicle control group
VALUE TYPE: Behavior of gene caused by administration of chemical substance, Gene No. 154

Check out these entries, answers already filled in.
• CN(C)c1ccc(N=Nc2ccccc2)cc1 = −
• ClC(Cl)=C(Cl)Cl = −
• Cc1c2ccccc2c(C)c2c1ccc1ccccc12 [TS047, 7,12-Dimethylbenz [a]anthracene] = −
• C=CCc1ccc2c(c1)OCO2 = +
• CCC1(c2ccccc2)C(=O)NC(=O)NC1=O = +
• Cc1ccc2cc3c(ccc4ccccc43)c3c2c1CC3 = −
• CCSCCC(N)C(=O)O (racemic) = −
• Cn1c(N)nc2ncc(-c3ccccc3)cc21 = −

What the record says about O=C(O)C1C(C(=O)O)C2(Cl)C(Cl)=C(Cl)C1(Cl)C2(Cl)Cl (stereo not shown) : Behavior of gene caused by administration of chemical substance, Gene No. 154 is −
